Test system: HCC-2998 colon
measurement.notes: NCI tumour cell line growth inhibition, 48 h
Label rule, in plain words: TGI of 50 µM and up is yes, under 50 µM is no.

>>> discrete_label("Cc1ccc(O)c(C2=CC(c3cccc(Cl)c3)SC(N)=N2)c1 (stereo unspecified)")
"no"
>>> discrete_label("CC(C)NC(=O)OCc1c(CO)c2c(n1C)-c1ccccc1CC2")
"yes"
>>> discrete_label("Cn1cnc([N+](=O)[O-])c1Sc1nccn1-c1cccc2ccccc12")
"yes"
>>> discrete_label("CC[C@@]1(C)CCC2c3ccc(O)cc3CC[C@H]2C1C (stereo partly specified)")
"no"
>>> discrete_label("O=C(c1ccccc1)C1OC1c1ccc([N+](=O)[O-])cc1 (stereo unspecified)")
"no"
>>> discrete_label("C=CC(=O)Nc1cc(C)ccc1Nc1nc(Nc2cc(OC)ncc2C)ncc1C(F)(F)F")
"no"
>>> discrete_label("CN(C)C(c1ccccc1)C1COC2Cc3ccccc3C1O2 (stereo unspecified)")
"yes"
>>> discrete_label("NCCCC[C@H](N)C(=O)Nc1ccc(-c2nc3ccccc3s2)cc1")
"yes"
>>> discrete_label("NC(=O)Cc1nc2c(N)ncnc2n1C1OC(CO)C(O)C1O (stereo unspecified)")
"yes"
